Quick reference for melting point among some molecules

[[record]]
compound_structure = "Cc1nc(NC(=O)COc2cc(C(=O)O)cc3cc(Cl)cc(Cl)c23)sc1C"
reported_measurement = "> 250 °C"

[[record]]
compound_structure = "O=C(O)COc1cc(CO)ccc1NC(=O)COc1cc(C(=O)O)cc2cc(Cl)cc(Cl)c12"
reported_measurement = "244 to 245 °C"


Lab note: next molecule to report on.
Report melting point for O=C(O)COc1ccc(CO)cc1NC(=O)COc1cc(C(=O)O)cc2cc(Cl)cc(Cl)c12
185 to 187 °C (dec.)
